Test system: NCI-H460 lung
assay overview: NCI tumour cell line growth inhibition, 48 h
TGI by entry:

molecule	TGI
Cc1nc(-n2[nH]c(C)c(CCO)c2=O)[nH]c(=O)c1CCO	> 100 µM
CCOP(=O)(OCC)C(Nc1cccc([N+](=O)[O-])c1)c1ccccc1 (centres undefined)	> 100 µM
Cc1ccccc1NC(=O)C(=O)CC(=O)c1sc(Nc2ccccc2[N+](=O)[O-])nc1C	> 100 µM
COc1cccc(Nc2nc(-c3cccs3)nc3ccc(Br)cc23)c1	> 100 µM
COC(=O)C12OC(C)(C(CC(=O)OC(C)(C)C)C1=O)C1C(=O)N(c3ccccc3)C(=O)C12 (centres undefined)	> 100 µM
COc1ccc(-c2nnc(SCC(=O)Nc3ccc(/C(C)=N\O)cc3)n2-c2ccccc2)cc1OC	> 100 µM

// returns reported TGI for input O=C(Cc1ccccc1)NN1C(=O)C(Cl)C1c1ccc([N+](=O)[O-])cc1 (centres undefined)
> 100 µM

Which TGI is listed for `c1ccc(C(c2ccccc2)[P+](c2ccccc2)(c2ccccc2)c2ccccc2)cc1` ?
11.5 µM

# get_value(readout='TGI', item= `O=C(c1ccccc1)[C@H]1Nc2ccc(Cl)cc2[C@H]2OCCC[C@@H]12` )
34.5 µM

What value of TGI has been recorded for this entry: `COc1cc(-c2c(C#N)c(N)c(C#N)c3c2COc2ccccc2-3)cc(OC)c1OC`
> 100 µM

* * *

System: OVCAR-4 ovarian
assay overview: NCI tumour cell line growth inhibition, 48 h
Quick list: TGI per entry.

Some molecules with known TGI results, for comparison:
molecule	TGI
CCN(CCCN(CC)C(=O)Nc1ccccc1)C(=O)Nc1ccccc1	> 100 µM
Cc1ccc2c(c1C)-c1c(ccc(C)c1C)C(=O)C2=O	0.554 µM
C(=C\c1nccs1)/c1cccc(/C=C/c2nccs2)n1	> 50 µM
Nc1ccc2nc3ccc(N)cc3[n+](-c3ccccc3)c2c1	> 100 µM
c1cc(CSP234N5CCN2CCN3CCN4CC5)ccc1CSP123N4CCN1CCN2CCN3CC4	> 100 µM

What does the record list as TGI for `c1cc(CCN2CCCCC2)ccn1` ?
> 100 µM

Recorded TGI for `O=C(O)CSCC(=O)O` , please?
> 100 µM

Sample `O=C1/C(=C/c2ccc([N+](=O)[O-])o2)Oc2ccc(Br)cc21` — what was its TGI?
6.18 µM

What value of TGI has been recorded for this entry: `CCOP(=O)(OCC)/C(C#N)=C/c1ccc(-c2ccc(F)cc2F)o1`
33.4 µM

// returns reported TGI for input `CC(=O)Nc1ccccc1C=C1c2ccccc2-c2ccccc21`
> 100 µM

For the molecule shown here, `NC(=O)c1oc([N+](=O)[O-])c(-c2ccccc2)c1-c1ccccc1` , give the reported TGI.
28.5 µM

Look up TGI: CN1CCN(c2cc3c(cc2F)c(=O)c(C(=O)O)cn3C2CC2)CC1CC#N (stereo not given)
> 100 µM

Recorded TGI of `O=C(c1ccccc1)[C@H]1Nc2ccc(Cl)cc2[C@H]2OCCC[C@@H]12` , please.
45 µM

Please give the measured TGI for this molecule: `Cc1nc2sc(C(=O)Nc3cccc4ccccc34)c(N)c2cc1C(=O)/C=C/c1ccccc1`
> 15.7 µM

Give its TGI value. Item: CC1(C)C2CCC(N)(C2)C1N (stereo not given)
> 100 µM

Suppose we examine the molecule `O=C(Cn1cc(F)c(=O)[nH]c1=O)C12CC3CC(CC(C3)C1)C2` ; what TGI value has been reported?
> 100 µM

Need TGI of `C=C(C)[C@@H]1CC[C@]2(C(=O)NCCNCCNCCN)CC[C@]3(C)[C@H](CC[C@@H]4[C@@]5(C)CC[C@H](O)C(C)(C)[C@@H]5CC[C@]43C)[C@@H]12` , thanks.
33 µM

* * *

Test system: HCT-116 colon
assay overview: NCI tumour cell line growth inhibition, 48 h
Listed next: entries and their corresponding TGI.

Solved entries:
> print(dat)
                                   molecule  target.of.assay  readout.value
1  CN1CCN(c2cc3c(cc2F)c(=O)c(C(=O)O)cn3C2CC2)CC1CC#N (centres undefined)    HCT-116 colon       > 100 µM
2  CCOC(=O)C1=C(NNC(=O)Cc2ccccc2)CSC1=Nc1ccccc1    HCT-116 colon       > 100 µM
3  N#C/C(=C1\NN=C(N)C(c2ccc(Cl)cc2)=C1O)c1ccc(Cl)cc1    HCT-116 colon       > 100 µM
4  O=c1[nH]/c(=C/c2ccc(OCc3ccccc3)cn2)c(=O)[nH]/c1=C/c1ccc(Cl)cc1    HCT-116 colon       > 100 µM
5  CCCCCCCCC(=O)N(C)C1C2CN3CCC(O2)C13 (centres undefined)    HCT-116 colon       > 100 µM

Kindly state the measured TGI obtained for `CCc1ccccc1N1CCN(C(=O)c2cc(OC)c(OC)c(OC)c2)CC1` with HCT-116 colon.
16.5 µM

// fetch HCT-116 colon TGI for `CCC(CC)n1cc(C(=O)NC(=O)NCCCCCOC(=O)CCCCCCCCCCC(=O)OCCCCCNC(=O)NC(=O)c2cn(C(CC)CC)c(=O)[nH]c2=O)c(=O)[nH]c1=O`
> 100 µM

Quick check: TGI on HCT-116 colon, item `COc1cc(Cn2c(=S)ss/c2=N\C(=S)N(C)C)cc(OC)c1OC` ?
> 70.7 µM

I'm curious: which TGI was measured for COC(=O)C1CC=C(SC(=O)c2ccccc2)N1C(=O)c1ccccc1 (centres undefined) tested on HCT-116 colon?
> 100 µM

* * *

System: SNB-19 CNS
assay overview: NCI tumour cell line growth inhibition, 48 h
Measured GI50, listed per entry.

# example entries with known answers
> print(dat)
                               smiles.input  readout.value
1  O=C(CCCCCCSc1nc(-c2ccccc2)cc(-c2ccccc2)n1)NO        2.69 µM
2  CCN1CCN(CC(=O)Nc2nc3ccc(NCc4ccc(Cl)cc4)cc3s2)CC1        3.12 µM

Query compound follows.
What value of GI50 has been recorded for this entry: `CC(C)[C@@]12C[C@@H](OC(=O)COC(=O)/C=C/c3ccccc3)[C@@](C)(O1)[C@@H]1CC[C@@H](C)[C@H]1[C@@H]2OC(=O)/C=C/c1ccccc1`
> 100 µM

* * *

System: BT-549 breast
assay overview: NCI tumour cell line growth inhibition, 48 h
measurement name: TGI (µM)
Please state the figure in µM; there is no need to write the unit.

Worked examples, 3 compounds total:
> print(dat)
                               smiles.input  measurement.name  endpoint.unit  readout.value
1                    CCCCCCC#Cc1ccccc1C#CCO               TGI             µM           32.9
2                NC1=C(Br)C(=O)c2ncccc2C1=O               TGI             µM           2.57
3  CCOP(=O)(OCC)/C(C#N)=C/c1ccc(-c2ccc(F)cc2F)o1               TGI             µM           24.5

Given the entry `C/C(=N\NC(=S)NC1CCCC1)c1ccccn1` , report its measured TGI.
63.9

// query TGI value for entry `COc1ccc(-c2cnnn2-c2cc(OC)c3c(c2)OCO3)cc1`
28.6

Please give the measured TGI for this compound: `CN(C)c1ccc(-c2cc(-c3ccc(Nc4nc(Nc5ccccc5)nc(Nc5ccc(Cl)cc5)n4)cc3)nc(N)n2)cc1`
25

* * *

Tested on: OVCAR-4 ovarian
assay overview: NCI tumour cell line growth inhibition, 48 h
measurement name: TGI

> print(dat)
                                   compound  readout.value
1              CC(=O)Oc1ccc2c(C)cc(=O)oc2c1       > 100 µM
2  COc1cc(Cn2c(=S)ss/c2=N\C(=S)N(C)C)cc(OC)c1OC      > 95.6 µM
3  Cc1cc(C)c2c(c1)Nc1ccccc1P2c1ccccc1 (stereo unspecified)       > 100 µM
4  CN1CCN(c2nc(NCCCCNc3ccnc4cc(Cl)ccc34)c3ccccc3n2)CC1        6.99 µM

# get_value(readout= TGI, system= OVCAR-4 ovarian) for CCN(CC)c1ccc(C2SCC(=O)N2c2ccc(NC(=O)c3ccc(N4C(=O)CSC4c4ccc(N(CC)CC)cc4)cc3)cc2)cc1 (stereo unspecified)
> 100 µM

Item `COc1c(OC)c(N)c2cc(C)c(=O)c(C)cc2c1N` with OVCAR-4 ovarian - TGI?
> 100 µM

* * *

Tested on: OVCAR-3 ovarian
assay overview: NCI tumour cell line growth inhibition, 48 h
Below, each entry is listed with its recorded TGI.
Field: numeric (µM). Do not append units.

Take a look at these entries with their results.
> print(dat)
                               smiles.input  endpoint.unit  readout.value
1  CCCCCCCCCCCCCCCC[N+](C)(C)CCN(Cc1ccc(OC)cc1)c1ncccn1             µM           3.32
2  Cc1ccccc1NC(=O)C(=O)CC(=O)c1sc(Nc2ccccc2[N+](=O)[O-])nc1C             µM           79.5
3  COc1ccc(-c2cnnn2-c2cc(OC)c3c(c2)OCO3)cc1             µM          0.437

// below: TGI requested for another molecule
Quick one: TGI for `O=C(c1ccccc1)[C@H]1Nc2ccc(Cl)cc2[C@H]2OCCC[C@@H]12` ?
30.7
